The following compounds are shown together with reported pIC50 values.
System: MIA PaCa2 cells
Test: Anti-proliferative effect on MIA PaCa2 cells by Cell Titer-Glo
Format: cell-based
Settings: Homo sapiens, MIA PaCa-2, 72 h, 3 days, read-out: MIA PaCa 2 (IC50, inhibition of proliferation in vitro)
pIC50: −log10 of the molar value.

compound	recordedValue
C=CCn1c(=O)c2cnc(Nc3ccc(N4CC5CC(C4)N5C)c(F)c3)nc2n1-c1cccc(C(C)(C)O)n1	5.70 to 6.00
C=CCn1c(=O)c2cnc(Nc3ccc(N4C[C@H]5C[C@@H]4CO5)cc3)nc2n1-c1cccc(C(C)(C)O)n1	5.70 to 6.00
C=CCn1c(=O)c2cnc(Nc3ccc(N(C)[C@@H]4CN5CCC4CC5)cc3)nc2n1-c1cccc(C(C)(C)O)n1	< 5.00
C=CCn1c(=O)c2cnc(Nc3ccc(N4CC5CC(C4)N5C4COC4)cc3)nc2n1-c1cccc(C(C)(C)O)n1	6.00 to 7.00
C=CCn1c(=O)c2cnc(Nc3ccc(N4CC5CC(C4)N5C)cc3)nc2n1-c1ccc2cnn(CC)c2n1	5.30 to 5.70

Briefly, pIC50 measured for C=CCn1c(=O)c2cnc(Nc3ccc(N4CC5CC(C4)N5C(C)C)cc3)nc2n1-c1cccc(C(C)(C)O)n1 : 6.00 to 7.00

The recorded pIC50 for entry C=CCn1c(=O)c2cnc(Nc3ccc(N4CCC(N5CC6CC5CN6C)CC4)cc3)nc2n1-c1cccc(C(C)(C)O)n1 (stereo not shown) equals 6.00 to 7.00
